System: SW-620 colon
Assay: NCI-60 one-dose screen, 48 h (100 = growth as untreated, 0 = no growth, -100 = all killed)
Conditions: 10 µM unless noted
The panel holds about 83,000 compounds, 20% with a hit somewhere; the sample as a whole holds those more often. Where a SMILES comes first, the peptide text is derived from it. The star is where a group is joined. Trt = c1ccc(C(c2ccccc2)(c2ccccc2)*)cc1; Cbz = O=C(OCc1ccccc1)*
Kindly note that classification relies on growth with these boundaries: low (below 40%), moderate (40% to below 80%), high (80% or more)

Worked examples follow.
compound | label
Cc1ccc(N=C=C(c2ccccc2)c2ccccc2)cc1 | low
O=C(Nc1ccccc1)c1cc(Cl)ccc1O | moderate
CCC(c1cccc(O)c1)C(CC)c1cccc(O)c1 (stereo not given) | moderate
NC1=CC(=O)c2ccccc2C1=O | high
O=C(O)c1ccc2c3c(ncnc13)-c1ccccc1C2=O | high

Q: Assign a bin to COC(=O)C(CSC(c1ccccc1)(c1ccccc1)c1ccccc1)NC(=O)C(CC(N)=O)NC(=O)OCc1ccccc1 (stereo not drawn) (Cbz-Asn-Cys(Trt)-OMe; configuration not given here)
Result: moderate

Q: Which category does the recorded growth put CN(Cc1cnc2nc(N)nc(N)c2n1)c1ccc(C(=O)NC(CCC(=O)O)C(=O)O)cc1 (stereo not given) in?
Result: low

Q: Please classify: `Cn1c2ccccc2c2nnc(N/N=C/c3ccccn3)nc21`
Result: low

* * *

Test system: IGROV1 ovarian
Assay: NCI-60 one-dose screen, 48 h
Settings: 10 µM unless noted
Compounds without any hit were thinned out: in the full panel of roughly 83,000, 20% have a hit. Activity calls are given as the source filed them. The calls were made as follows: active = growth percent below 10; inactive = the rest.
Reply using exactly one outcome from active, inactive

molecule | label
COc1ccccc1/C=C\C(=O)c1ccccc1 | inactive
O=C1NC(=O)/C(=C/C=C/c2ccccc2)S1 | active

Q: Record request — test call for `NC(=O)/C=C/C(=O)c1c(Cl)cccc1Cl`
Result: active

Q: Record lookup: outcome of this test for `CNC(=O)N/N=C/c1ccc([N+](=O)[O-])o1` ?
Result: inactive

Q: Outcome? `O=C(/C=C\c1cc(Br)ccc1O)/C=C/c1cc(Br)ccc1O`
Result: active

Q: Query: recorded result category for `N#CSCc1ccc(Cl)c(CSC#N)c1` in this test
Result: inactive

Q: Write down the call the test reported for this molecule. Item: `O=C(Oc1cccc2cccnc12)c1ccccc1`
Result: inactive

* * *

Tested on: SK-MEL-2 melanoma
Experiment: NCI-60 one-dose screen, 48 h (100 = growth as untreated, 0 = no growth, -100 = all killed)
Details: 10 µM unless noted
Compounds without any hit were thinned out: in the full panel of roughly 83,000, 20% have a hit. Calls of active or inactive are those of the source. Rule for the calls: active = growth percent below 10; inactive = the rest.
This section presents compounds with their documented growth values.

These recorded examples may help you get a feel for the data.
compound | growth
O=C(Nc1ccc(F)cc1)ON=C1CCCCC1 | 102% [100 µM] (inactive)
O=C(/C=C/C=C/c1ccccc1)c1ccco1 | 103% (inactive)
CCC(CC)COC(=O)c1ccc(O)c(O)c1 | 85.6% (inactive)
CC1SC(=S)N(c2ccc(Cl)cc2)C1=O (centres undefined) | 98.2% (inactive)
N#CC1C(=O)SC2c3ccccc3C(=O)c3ccccc3C12 (centres undefined) | 98.5% (inactive)

Let us examine a further case.
Q: // growth lookup, key: `Cc1cc2nc(CS)[nH]c2cc1C`
Result: 101% (inactive)
